Counter-ions that a name gives are not always drawn.
PROPERTY: melting point

Would you please look over these solved cases?
COMPOUND: CC(=O)O[C@@H]1[C@H](OC(C)=O)[C@@H](CO)O[C@H]1n1c(=O)sc2cnc(N)nc21 [Compound 93]
melting point: 109 to 111 °C
//
COMPOUND: CC(C)[C@H](N)C(=O)OC[C@H]1O[C@@H](n2c(=O)sc3c(=O)[nH]c(N)nc32)[C@H](O)[C@@H]1O (as salt: hydrochloride) [Compound 24, Dihydrochloride]
melting point: 166 to 168 °C (dec.)
//
COMPOUND: Nc1ncc2sc(=O)n([C@@H]3O[C@H](CO)[C@@H](O)[C@H]3O)c2n1
melting point: 220 °C (dec.)

Let's switch to this compound now.
input: Given CC(=O)OC[C@H]1O[C@@H](n2c(=O)sc3c(=O)[nH]c(N)nc32)[C@H](OC(C)=O)[C@@H]1OC(C)=O , state its recorded melting point.
output: 198 to 199 °C
